# studySystem: ΔF508-CFTR (Homo sapiens, UniProt P13569, DEL508-508)
# Construct: host or cells: CFBE41o-, doxycycline-inducible
# Sequence (P13569 with tags, fused parts or gaps DEL508-508): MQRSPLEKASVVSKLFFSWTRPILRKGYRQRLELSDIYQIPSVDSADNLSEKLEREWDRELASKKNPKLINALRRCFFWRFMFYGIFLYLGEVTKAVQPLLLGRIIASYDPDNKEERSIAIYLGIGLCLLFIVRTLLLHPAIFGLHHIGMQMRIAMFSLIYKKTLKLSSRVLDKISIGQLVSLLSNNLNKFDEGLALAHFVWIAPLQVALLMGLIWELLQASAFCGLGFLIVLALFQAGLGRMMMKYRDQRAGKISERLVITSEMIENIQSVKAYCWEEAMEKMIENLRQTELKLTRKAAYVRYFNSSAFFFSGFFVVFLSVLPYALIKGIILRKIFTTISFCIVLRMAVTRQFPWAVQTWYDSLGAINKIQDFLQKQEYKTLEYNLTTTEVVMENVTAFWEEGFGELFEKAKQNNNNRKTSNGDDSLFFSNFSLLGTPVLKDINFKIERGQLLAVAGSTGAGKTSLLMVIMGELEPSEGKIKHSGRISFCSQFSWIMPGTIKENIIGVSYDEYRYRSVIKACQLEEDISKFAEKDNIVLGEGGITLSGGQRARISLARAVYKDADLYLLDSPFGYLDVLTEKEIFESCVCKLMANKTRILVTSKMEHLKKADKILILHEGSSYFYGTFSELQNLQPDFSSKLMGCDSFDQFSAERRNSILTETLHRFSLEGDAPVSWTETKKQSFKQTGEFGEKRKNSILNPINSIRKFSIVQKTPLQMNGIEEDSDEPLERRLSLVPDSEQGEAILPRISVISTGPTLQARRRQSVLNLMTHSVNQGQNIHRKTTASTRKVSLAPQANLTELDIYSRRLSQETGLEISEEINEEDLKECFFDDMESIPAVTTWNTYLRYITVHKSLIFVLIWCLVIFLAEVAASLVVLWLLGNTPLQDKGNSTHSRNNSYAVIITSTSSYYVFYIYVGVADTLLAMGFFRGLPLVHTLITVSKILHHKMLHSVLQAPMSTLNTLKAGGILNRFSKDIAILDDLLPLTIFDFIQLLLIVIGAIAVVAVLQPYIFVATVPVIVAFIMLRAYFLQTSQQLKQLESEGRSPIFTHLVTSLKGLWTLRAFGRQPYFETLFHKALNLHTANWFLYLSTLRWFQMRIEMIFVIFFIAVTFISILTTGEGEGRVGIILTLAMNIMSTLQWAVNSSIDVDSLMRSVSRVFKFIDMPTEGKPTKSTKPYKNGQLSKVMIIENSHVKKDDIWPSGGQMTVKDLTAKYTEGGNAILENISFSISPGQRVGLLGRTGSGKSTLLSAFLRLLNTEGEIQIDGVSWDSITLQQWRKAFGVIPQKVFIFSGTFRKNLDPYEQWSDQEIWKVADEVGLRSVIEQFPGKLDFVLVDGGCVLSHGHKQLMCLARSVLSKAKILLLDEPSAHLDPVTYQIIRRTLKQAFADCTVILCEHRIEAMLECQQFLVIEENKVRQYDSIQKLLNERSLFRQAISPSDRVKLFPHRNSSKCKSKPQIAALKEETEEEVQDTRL
# test: CFTR cell surface levels using HRP-tagged ΔF508-CFTR expressing CFBE cells, in the presence of a co-corrector
# Type: cell-based
# conditionDetails: HRP-tagged ΔF508-CFTR CFBE cells, in the presence of 3 μM co-corrector
Category | rule: reported % Activation within range, see lower segment = under 300%, middle segment = from 300% up to 400%, upper segment = 400% and over

> print(dat)
                                    molecule           class
 1  CC(C)Oc1nn(C2CCCCC2)c2nc(C(=O)NS(=O)(=O)N(C)C)cc(-c3ccc(CN4CCN(C)CC4)cc3)c12 [Compound 442]  middle segment
 2  CN(C1CCOCC1)C1CCN(c2cc(C(=O)NS(=O)(=O)N(C)C)nc3c2c(C2CCC2)nn3-c2ccc(F)cc2)CC1 [Compound 528]  middle segment
 3  CN(C)S(=O)(=O)NC(=O)c1cc(N2CCC(N3CCCCC3)CC2)c2c(C3CCC3)nn(-c3ccccc3)c2n1 [Compound 426]  middle segment
 4  COCC(COC)Oc1cc(C(=O)NS(C)(=O)=O)nc2c1c(C(C)C)nn2-c1ccc(F)cc1 [Compound 311]   lower segment
 5  O=C(NS(=O)(=O)C1CC1)c1cc(N2CCC(CN3CCCC3)CC2)c2c(C3CCC3)nn(-c3ccccc3)c2n1 [Compound 462]   upper segment
 6  CN(C)S(=O)(=O)NC(=O)c1cc(N2CCC(N3CCC(F)CC3)CC2)c2c(C3CCC3)nn(-c3ccc(F)cc3)c2n1 [Compound 525]   upper segment
 7  CC(C)N(CCOc1cc(C(=O)NS(C)(=O)=O)nc2c1c(C1CCC1)nn2-c1ccccc1)C1COC1 [Compound 325]  middle segment
 8  CN1CCN(C(=O)C2CCN(S(=O)(=O)NC(=O)c3cc(OCC4CCOCC4)c4c(C5CCC5)nn(-c5ccccc5)c4n3)CC2)CC1 [Compound 360]   lower segment
 9  CN(C)S(=O)(=O)NC(=O)c1cc(CN2CCC(N3CCOCC3)CC2)c2c(C3CCC3)nn(-c3ccc(F)cc3)c2n1 [Compound 595]   lower segment
10  COCCS(=O)(=O)NC(=O)c1cc(N2CCC(COC)CC2)c2c(C(C)C)nn(CC(C)C)c2n1 [Compound 265]   upper segment
11  COCCS(=O)(=O)NC(=O)c1cc(-c2ccc(CN3CCOCC3)cc2)c2c(OC(C)C)nn(C3CCCCC3)c2n1 [Compound 405]  middle segment
12  COC1CCCN(C2CCN(c3cc(C(=O)NS(C)(=O)=O)nc4c3c(C3CCC3)nn4-c3ccc(F)cc3)CC2)C1 (centres unmarked) [Compound 587]   upper segment
13  CC(C)Oc1cc(-n2nc(C3CCC3)c3c(N4CCC(N5CCOCC5)CC4)cc(C(=O)NS(=O)(=O)N(C)C)nc32)ccn1 [Compound 529]   upper segment
14  CS(=O)(=O)NC(=O)c1cc(C2CCC(N3CCOCC3)CC2)c2c(C3CCC3)nn(-c3ccccc3)c2n1 (centres unmarked) [Compound 648]   lower segment
